src = ChEMBL document CHEMBL1201862

# Tested on: ACHN
# assay_method_text: NCI tumour cell line growth inhibition, 48 h
Calls of active or inactive are those of the source. Rule as the data show it: active = GI50 up to about 1.1 µM and inactive = higher.
Classes to choose from: yes for active, no for inactive

Use the examples below as a reference point.
molecule: O=c1ccc2ccc(S)cc2o1
target: ACHN
assigned_class: no

molecule: CC[C@@H]1CC[C@@H]2[C@H](CC[C@]3(C)[C@@H](O[N+](=O)[O-])CC[C@@H]23)[C@H]1C(C)=O
target: ACHN
assigned_class: no

molecule: CC1=C(C)C2(C#N)C(=O)N3C(=NC(c4ccccc4)NC3c3ccccc3)C2(C#N)C(c2ccccc2)N1 (centres undefined)
target: ACHN
assigned_class: no

molecule: COc1ccc(C2c3cc4c(cc3OC(N3CCCCC3)C2C)OCO4)cc1 (centres undefined)
target: ACHN
assigned_class: no

molecule: Cc1c(Cl)ccc2c1NC(=O)C2(O)C(C(=O)c1ccccc1)c1ccccc1 (centres undefined)
target: ACHN
assigned_class: no

// return assay outcome for CNC1Cc2c[nH]c3cccc(c23)C12C=C(C)C(=O)O2 (centres undefined)
no

// return assay outcome for CC1CC(=O)NC2CC1C2(C)C (centres undefined)
no

// return assay outcome for "COc1cc(C2=C(c3cc(OC)c4ccccc4c3OC)C(=O)c3ccccc3C2=O)c(OC)c2ccccc12"
no

// return assay outcome for "COc1c(C)c(C/C=C(\C)CCCCO)c(OC)c(OC)c1OC"
no

// return assay outcome for "COc1cc(NCC(C#N)C#N)ccc1/N=N/c1ccc(Cl)cc1"
no

----------
# System: NCI-H23
# assay_method_text: NCI tumour cell line growth inhibition, 48 h
Calls of active or inactive are those of the source. Cut-off read from the data, not from the text of the source: active = GI50 up to about 1.1 µM and inactive = higher.
Give measured GI50 for each item. Keep answers brief.

Sample records with GI50:
molecule: COc1ccccc1-n1c(C)nc2ccccc2c1=O
GI50: > 100 µM (inactive)
--
molecule: COc1cc2c(c(O)c1C)C(=O)CC(c1ccccc1)O2 (stereo not drawn)
GI50: 22.4 µM (inactive)
--
molecule: C=C1C(=O)C=C[C@]2(C)CC[C@H]3C(=C)C(=O)O[C@@H]3[C@@H]12
GI50: 2.63 µM (inactive)
--
molecule: CC1NCCC(CC(=O)O)C1CC(=O)O (stereo not drawn)
GI50: > 100 µM (inactive)
--
molecule: O=c1[nH]c2nccnc2c2c([N+](=O)[O-])cccc12
GI50: > 100 µM (inactive)
--
molecule: Cc1nc(C(N)=S)sc1C(=O)CC(=O)C(=O)Nc1cccc(Cl)c1C
GI50: > 100 µM (inactive)
--
molecule: Cn1c2cc(Cl)ccc2c2ccc3c(c21)C(=O)C=CC3=O
GI50: 20 µM (inactive)
--
molecule: S=C(N/N=C(/c1ccccc1)c1ccccn1)N1CCCCC1
GI50: 0.0459 µM (active)
--
molecule: NC(=S)N/N=C/c1nccc2ccccc12
GI50: 0.459 µM (active)
--
molecule: Cc1nn(C(=O)c2ccccc2O)c2c1C(c1ccc([N+](=O)[O-])cc1)SC(=N)N2 (stereo not drawn)
GI50: 2.79 µM (inactive)

Provide GI50 for all items below, preserving their order.
1. CC(O)C(O)C(N)CC=O (stereo not drawn)
2. C/C(=N\NC(N)=S)c1ccc(C)c(C)c1
3. Cn1cc(C(=O)/C(Cl)=C(\Cl)C(=O)O)c2ccccc21
4. Cc1ccc(/N=C/C=C(\Nc2ccc(C)cc2)c2ccc3ccccc3c2)cc1

1: > 500 µM (inactive); 2: 85.7 µM (inactive); 3: > 100 µM (inactive); 4: 0.585 µM (active)

----------
# Test system: OVCAR-8
# assay_method_text: NCI tumour cell line growth inhibition, 48 h
Activity calls are given as the source filed them. Rule as the data show it: active = GI50 up to about 1.1 µM and inactive = higher.
Give measured GI50 for each item. Keep answers brief.

Sample records with GI50:
compound: COc1ccc(N2C(=O)C3c4[nH]c5ccccc5c4C4CC(C)(C)CC(C)(C)C4C3C2=O)cc1 (stereo not given)
target: OVCAR-8
GI50: 3.2 µM (inactive)
--
compound: COc1cc(Nc2nc3cc(C(F)(F)F)ccc3n3cccc23)cc(OC)c1OC
target: OVCAR-8
GI50: > 100 µM (inactive)
--
compound: CC1(C)C2CC(O)C1CCC2=O (stereo not given)
target: OVCAR-8
GI50: > 100 µM (inactive)
--
compound: O=C1NC(N2CCCCC2)=N/C1=C\c1ccccc1O
target: OVCAR-8
GI50: > 100 µM (inactive)
--
compound: O=C1/C(=C\c2cccc(Oc3ccccc3)c2)SC(c2ccccc2)N1c1cccc([N+](=O)[O-])c1 (stereo not given)
target: OVCAR-8
GI50: 35.5 µM (inactive)

Provide GI50 for all items below, preserving their order.
1. COc1cc(NCC(C#N)C#N)ccc1/N=N/c1ccc(Cl)cc1
2. CN(C)c1cccc(-c2cc(O)c3ccccc3n2)c1
3. C/C=C/C=C/C=C/C=C/C(=O)O
4. N=C(N)N/N=C/c1c(-c2ccccc2)nc2ccn3c(/C=N/N=C(N)N)c(-c4ccccc4)nc3n12
5. Cc1cc(-c2ccc(C(=O)C(c3ccccc3)(c3ccccc3)c3ccccc3)[nH]2)on1

1. 29.7 µM (inactive)
2. 75.9 µM (inactive)
3. > 100 µM (inactive)
4. 26.5 µM (inactive)
5. 17.5 µM (inactive)

----------
# Tested on: Malme-3M
# assay_method_text: NCI tumour cell line growth inhibition, 48 h
Activity calls are given as the source filed them. Cut-off read from the data, not from the text of the source: active = GI50 up to about 1.1 µM and inactive = higher.
Classes to choose from: 1 (yes) for active, 0 (no) for inactive

Use the examples below as a reference point.
molecule: CC(C)C1=CC(=O)C(C)(C2=NC(C)(C)CO2)c2ccccc21 (centres undefined)
assigned_class: 0 (no)

molecule: Cc1ccc(/C(=C/C=C(C#N)C#N)Sc2cc(Cl)ccc2Cl)cc1
assigned_class: 0 (no)

// return assay outcome for "O=c1c2c(sc3ccccc13)NCN(CCc1ccccc1)C2"
0 (no)

// return assay outcome for CCCP1(=O)C=C(C)C(=C(Cl)Cl)C(C)=C1 (centres undefined)
0 (no)

// return assay outcome for Cc1ccc(/C=C2\CN(C)CC3=C2N=C(S)NC3c2ccc(C)cc2)cc1 (centres undefined)
0 (no)

// return assay outcome for CC(C)C1=CC23CCC4C(C)(C(=O)O)CCCC4(C)C2CC1C1C(=O)N(c2ccc(N4C(=O)C5C6CC7C8(C)CCCC(C)(C(=O)O)C8CCC7(C=C6C(C)C)C5C4=O)cc2)C(=O)C13 (centres undefined)
0 (no)

// return assay outcome for "Cc1cc2c3c(c1)S(=O)(=O)c1cc(Cl)ccc1N3CCC2"
0 (no)

// return assay outcome for "O=C1N=C(SC(SC2=NC(=O)C3(NN2)c2ccccc2-c2ccccc23)=C(SC2=NC(=O)C3(NN2)c2ccccc2-c2ccccc23)SC2=NC(=O)C3(NN2)c2ccccc2-c2ccccc23)NNC12c1ccccc1-c1ccccc12"
0 (no)

// return assay outcome for "Nc1ccc2c(c1)C(=O)N(OS(=O)(=O)c1ccccc1)C2=O"
0 (no)

----------
Give measured GI50 for each item. Keep answers brief.
# System: A549
# assay_method_text: NCI tumour cell line growth inhibition, 48 h
Calls of active or inactive are those of the source. Cut-off read from the data, not from the text of the source: active = GI50 up to about 1.1 µM and inactive = higher.

molecule: COc1ccc2c(c1)nc1n2C(c2c(Cl)cccc2Cl)SC1 (stereo not given)
GI50: 18 µM (inactive)
--
molecule: CC1NCCC(CC(=O)O)C1CC(=O)O (stereo not given)
GI50: > 100 µM (inactive)
--
molecule: CCOC(=O)C1=CC(C)(C(=O)OCC)Nc2c(nc(N)[nH]c2=O)N1 (stereo not given)
GI50: > 10 µM (inactive)
--
molecule: CC1(C)O[C@H]([C@H](O)c2nnc3ccc(Cl)nn23)[C@@H]([C@H]2COC(C)(C)O2)O1
GI50: > 100 µM (inactive)
--
molecule: CN/C(=N\N=C1/C(=O)Nc2ccccc21)SCC(=O)c1ccc(Br)cc1
GI50: 5.01 µM (inactive)

Provide GI50 for all items below, preserving their order.
1. [N-]=[N+]=C(C(=O)C(=[N+]=[N-])C(=O)c1ccccc1)C(=O)c1ccccc1
2. Cc1cc(C(F)(F)F)cc(-n2nc(NS(=O)(=O)c3cc(C)c(Cl)cc3S)nc2N)n1

["> 100 µM (inactive)", "36.6 µM (inactive)"]

Provide GI50 for all items below, preserving their order.
1. COc1cc(C2S/C(=C/c3ccccc3)C(=O)N2Cc2ccccc2)cc(OC)c1OC (stereo not given)
2. COc1c(O)ccc2c1CN1CCc3cc4c(cc3C1C2)OCO4 (stereo not given)
3. Cc1c(Cl)ccc2c1NC(=O)C2(O)C(C(=O)c1ccccc1)c1ccccc1 (stereo not given)

1: 27.3 µM (inactive); 2: 32.5 µM (inactive); 3: 98.2 µM (inactive)

----------
# Test system: MDA-MB-231
# assay_method_text: NCI tumour cell line growth inhibition, 48 h
Calls of active or inactive are those of the source. No stated cut-off is given here; in the data, active = GI50 up to about 1.1 µM and inactive = higher. Peptide text beside a SMILES is read from it. * marks the point of attachment. Boc = CC(C)(C)OC(=O)*; OBn = c1ccc(CO*)cc1
endpoint_label: GI50

compound: CC1(C)C2CC(O)C1CCC2=O (stereo not drawn)
GI50: > 100 µM (inactive)
--
compound: CN(C)c1ccc(/C=N\NC(=O)Nc2cccc3ccccc23)cc1
GI50: 12.3 µM (inactive)
--
compound: C=C(C)C1CC2(C)C(C)CC(O)CC2C(OC(=O)C=C(C)C)C1O (stereo not drawn)
GI50: 24.5 µM (inactive)
--
compound: CC(C)CC(NC(=O)OC(C)(C)C)C(=O)NC(CC(=O)OCc1ccccc1)C(N)=O (stereo not drawn) (Boc-Leu-Asp(OBn)-NH2; configuration not given here)
GI50: > 100 µM (inactive)

Provide GI50 for all items below, preserving their order.
1. CN(C)C(=S)/N=c1\ssc(=S)n1Cc1ccccc1
2. COc1ccc(OC)c(CNc2ccc(C(=O)O)cc2)c1

1: 0.631 µM (active); 2: > 100 µM (inactive)
